# System: F1*sub RNA substrate (template-directed ligation)
# PROTOCOL_DETAILS: fraction ligated after 30 min (ligated reads / total reads); higher = more ligase activity; sequences stand for … in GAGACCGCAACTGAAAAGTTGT…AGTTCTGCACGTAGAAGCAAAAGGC
# MEASUREMENT_PARAMETERS: 42 °C
Parameter threshold = 0.5. Response is met when fraction ligated meets or exceeds it, else not met.

Field: example entries. Status: answers known.
TATCACTTGCGAAGACCTTTGGATGGGTTGA [3d1617] : met
TATCACTTGCGTAGACACTTTGATGGGTTGA [3d1633] : met
TATCACTTGTCGTAGACACTTTGGTGGGTTGA [2d229] : not met
TATCATTGTCGTAAACACTTTGATGGGTTGA [3d1231] : met

Query block: Does the sequence TATCACTTGTCTAAGACCTTTGGTGGGTTGA [3d1866] have recorded fraction ligated that is 0.5 or more?
Result block: not met

Query block: Hello, I need to know if TATACTTTCGTAAGACATTTGGATGGGTTGA [3d804] has measured fraction ligated not below 0.5. Thanks!
Result block: met
